Molecular target: Phosphorylase b kinase gamma catalytic chain, liver/testis isoform (Homo sapiens)
Conditions: at 1 µM
assay.endpoint: residual activity (%)
Quick reminder: number only, in %, skip the unit.

Inquiry: Return reported residual activity; argument: `O=C1Nc2cc(Br)ccc2/C1=C1/Nc2ccccc2/C1=N\O`
Reply text: 55

Inquiry: Return reported residual activity; argument: `O=c1c2ccccc2[nH]c(=S)n1CCN1CCC(=C(c2ccc(F)cc2)c2ccc(F)cc2)CC1`
Reply text: 103

Inquiry: Return reported residual activity; argument: `Nc1cccc(-c2cc3c(Oc4cccc(O)c4)ncnc3[nH]2)c1`
Reply text: 120

Inquiry: Return reported residual activity; argument: `O=Nc1c(-c2c(O)[nH]c3ccccc23)[nH]c2ccccc12`
Reply text: 25

Inquiry: Return reported residual activity; argument: `COc1ccc(OC)c2c(=S)c3ccccc3[nH]c12`
Reply text: 119

Inquiry: Return reported residual activity; argument: `c1ccc(-c2n[nH]cc2-c2ccnc3ccccc23)nc1`
Reply text: 95

Inquiry: Return reported residual activity; argument: `CC(C)n1cnc2c(NCc3ccccc3)nc(NCCCO)nc21`
Reply text: 96

Inquiry: Return reported residual activity; argument: `CN(C)CCCn1cc(C2=C(c3c[nH]c4ccccc34)C(=O)NC2=O)c2ccccc21`
Reply text: 88

Inquiry: Return reported residual activity; argument: `COc1ccc(C(=O)Nc2sc3c(c2C(N)=O)CCCC3)cc1OC`
Reply text: 78

Inquiry: Return reported residual activity; argument: `O=c1cc(-c2cccc3c2Sc2ccccc2S3)oc(N2CCOCC2)c1`
Reply text: 96

Inquiry: Return reported residual activity; argument: `Nc1ccc2ncnc(NCCc3ccc(Oc4ccccc4)cc3)c2c1`
Reply text: 88

Inquiry: Return reported residual activity; argument: `Cn1cnc2cc3c(Nc4cccc(Br)c4)ncnc3cc21`
Reply text: 95

Inquiry: Return reported residual activity; argument: `Cc1cncc2cccc(S(=O)(=O)N3CCCN(C(=O)CN)C[C@H]3C)c12`
Reply text: 82

Inquiry: Return reported residual activity; argument: `CCN(CC)CCCCN1c2ccccc2Oc2ccc(Cl)cc21`
Reply text: 112

Inquiry: Return reported residual activity; argument: `O=C1Nc2ccc(Br)cc2/C1=C\c1cc2c([nH]1)CCCC2`
Reply text: 77

Inquiry: Return reported residual activity; argument: `NC(=O)c1ccc2[nH]c(-c3ccc(Oc4ccc(Cl)cc4)cc3)nc2c1`
Reply text: 89

Inquiry: Return reported residual activity; argument: `O=[N+]([O-])c1ccc(-c2nc(-c3ccc(F)cc3)c(-c3ccncc3)[nH]2)cc1`
Reply text: 98

Inquiry: Return reported residual activity; argument: `CC(=O)O/N=C1\C(=C2\C(=O)Nc3cc(Br)ccc32)Nc2ccccc21`
Reply text: 92

Inquiry: Return reported residual activity; argument: `Oc1ccc(-c2nc(-c3ccc(F)cc3)c(-c3ccncc3)[nH]2)cc1`
Reply text: 107

Inquiry: Return reported residual activity; argument: `C[C@@H](N)[C@H]1CC[C@H](C(=O)Nc2ccncc2)CC1`
Reply text: 101

Inquiry: Return reported residual activity; argument: `Cn1cc(/C=C2\C(=O)Nc3ccc(S(N)(=O)=O)cc32)c2ccccc21`
Reply text: 24

Inquiry: Return reported residual activity; argument: `O=C1NC(=O)/C(=C\c2ccc3nccnc3c2)S1`
Reply text: 90

====

Molecular target: Serine/threonine-protein kinase DCLK2 (Homo sapiens)
Sequence (whole entry): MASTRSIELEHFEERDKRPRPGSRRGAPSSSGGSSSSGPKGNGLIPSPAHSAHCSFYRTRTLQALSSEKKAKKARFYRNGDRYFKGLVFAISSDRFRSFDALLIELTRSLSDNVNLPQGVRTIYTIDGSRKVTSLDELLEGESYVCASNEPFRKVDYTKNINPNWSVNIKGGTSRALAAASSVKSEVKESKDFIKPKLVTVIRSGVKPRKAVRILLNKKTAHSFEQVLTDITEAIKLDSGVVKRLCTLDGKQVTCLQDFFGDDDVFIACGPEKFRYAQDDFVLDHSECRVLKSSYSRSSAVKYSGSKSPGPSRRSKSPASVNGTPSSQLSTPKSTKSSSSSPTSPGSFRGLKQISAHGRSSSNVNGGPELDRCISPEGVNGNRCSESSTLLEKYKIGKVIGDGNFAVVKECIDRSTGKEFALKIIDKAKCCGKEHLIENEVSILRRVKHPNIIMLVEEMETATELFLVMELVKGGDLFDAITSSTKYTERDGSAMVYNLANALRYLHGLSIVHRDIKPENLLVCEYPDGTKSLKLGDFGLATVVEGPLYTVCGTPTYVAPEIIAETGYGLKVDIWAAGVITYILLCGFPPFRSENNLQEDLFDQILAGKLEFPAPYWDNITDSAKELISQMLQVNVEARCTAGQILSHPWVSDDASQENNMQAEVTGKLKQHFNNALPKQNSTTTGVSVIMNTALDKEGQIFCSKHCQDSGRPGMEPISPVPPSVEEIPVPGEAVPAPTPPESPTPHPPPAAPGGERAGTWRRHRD
Details: at 1 µM
For each record, write down the corresponding residual activity.
Quick reminder: number only, in %, skip the unit.

Inquiry: Return reported residual activity; argument: `COc1ccc(CNc2nc(N(CCO)CCO)nc3c2ncn3C(C)C)cc1`
Reply text: 94

Inquiry: Return reported residual activity; argument: `CC[n+]1c(/C=C/N(C)c2ccccc2)n(-c2ccccc2)c2ccc(-c3nc4ccccc4s3)cc21`
Reply text: 110

Inquiry: Return reported residual activity; argument: `CC(C)n1cnc2/c(=N/c3cccc(Cl)c3)nc(NCCO)[nH]c21`
Reply text: 103

Inquiry: Return reported residual activity; argument: `O=Nc1c(-c2c(O)[nH]c3ccccc23)[nH]c2ccccc12`
Reply text: 119

Inquiry: Return reported residual activity; argument: `Cc1nc2cc3nc(-c4cccs4)cnc3cc2n1C`
Reply text: 115

Inquiry: Return reported residual activity; argument: `O=c1c2ccccc2[nH]c(=S)n1CCN1CCC(=C(c2ccc(F)cc2)c2ccc(F)cc2)CC1`
Reply text: 91

Inquiry: Return reported residual activity; argument: `COc1cc2ncnc(N3CCN(C(=O)Nc4ccc(Oc5ccccc5)cc4)CC3)c2cc1OC`
Reply text: 98

Inquiry: Return reported residual activity; argument: `O=C(Nc1cccc(Nc2nccc(Nc3cccc(C(F)(F)F)c3)n2)c1)C1CC1`
Reply text: 82

Inquiry: Return reported residual activity; argument: `COc1ccc(C(=O)Nc2sc3c(c2C(N)=O)CCCC3)cc1OC`
Reply text: 86

Inquiry: Return reported residual activity; argument: `CC(=O)O/N=C1\C(=C2\C(=O)Nc3cc(Br)ccc32)Nc2ccccc21`
Reply text: 107
